# Target Of Assay: Neuronal acetylcholine receptor; alpha4/beta2 (Rattus norvegicus, UniProt P09483+P12390)
# Sequence (P09483 whole entry): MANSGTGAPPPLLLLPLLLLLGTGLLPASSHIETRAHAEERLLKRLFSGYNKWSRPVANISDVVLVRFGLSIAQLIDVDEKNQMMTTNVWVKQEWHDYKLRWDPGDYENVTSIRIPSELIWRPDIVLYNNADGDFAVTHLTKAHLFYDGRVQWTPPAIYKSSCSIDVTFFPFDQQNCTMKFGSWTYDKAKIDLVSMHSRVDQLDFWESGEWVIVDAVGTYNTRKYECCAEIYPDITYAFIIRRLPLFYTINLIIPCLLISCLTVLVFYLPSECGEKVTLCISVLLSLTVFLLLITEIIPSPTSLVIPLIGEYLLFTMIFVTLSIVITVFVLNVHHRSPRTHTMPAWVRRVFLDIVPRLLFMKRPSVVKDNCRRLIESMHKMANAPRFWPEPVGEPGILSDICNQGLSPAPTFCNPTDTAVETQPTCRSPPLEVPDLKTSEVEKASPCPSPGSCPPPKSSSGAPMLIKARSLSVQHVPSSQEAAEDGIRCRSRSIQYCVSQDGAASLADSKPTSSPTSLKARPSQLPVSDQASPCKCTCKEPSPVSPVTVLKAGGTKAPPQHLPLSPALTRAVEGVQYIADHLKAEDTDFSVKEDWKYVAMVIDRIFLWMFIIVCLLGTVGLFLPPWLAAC
# Sequence (P12390 whole entry): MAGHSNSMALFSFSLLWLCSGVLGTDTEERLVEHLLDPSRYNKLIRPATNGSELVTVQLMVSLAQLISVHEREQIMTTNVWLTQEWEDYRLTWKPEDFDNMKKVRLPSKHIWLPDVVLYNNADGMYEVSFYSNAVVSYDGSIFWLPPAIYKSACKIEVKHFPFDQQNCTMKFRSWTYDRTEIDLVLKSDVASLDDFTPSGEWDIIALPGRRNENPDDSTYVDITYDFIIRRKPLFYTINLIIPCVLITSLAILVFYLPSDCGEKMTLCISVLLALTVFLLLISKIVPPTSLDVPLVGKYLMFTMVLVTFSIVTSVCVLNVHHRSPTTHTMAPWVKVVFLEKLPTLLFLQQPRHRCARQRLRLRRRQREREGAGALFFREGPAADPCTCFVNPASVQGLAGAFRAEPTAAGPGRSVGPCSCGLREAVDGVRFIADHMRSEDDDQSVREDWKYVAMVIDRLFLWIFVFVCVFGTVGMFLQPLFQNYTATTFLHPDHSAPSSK
# Test Summary: Antagonist activity at rat alpha4beta2 nAChR expressed in Xenopus laevis oocytes assessed as inhibition of acetylcholine-induced mean current response by two-electrode voltage clamp electrophysiology assay
Value Kind: IC50 (µM)

1. Fc1ccc(-c2cncc([C@H]3C[C@H]4CC[C@H]3N4)c2)cn1 (racemic) : 1.3
2. Clc1ccc(-c2cncc([C@H]3C[C@H]4CC[C@H]3N4)c2)cn1 (racemic) : 2.7
3. c1cncc(-c2cncc([C@H]3C[C@H]4CC[C@H]3N4)c2)c1 (racemic) : 6.4
4. COc1cc(-c2cncc([C@H]3C[C@H]4CC[C@H]3N4)c2)ccn1 (racemic) : 1.2
5. Clc1cc(-c2cncc([C@H]3C[C@H]4CC[C@H]3N4)c2)ccn1 (racemic) : 11
6. COc1ccc(-c2cncc([C@H]3C[C@H]4CC[C@H]3N4)c2)cn1 (racemic) : 1.8
7. Fc1cc(-c2cncc([C@H]3C[C@H]4CC[C@H]3N4)c2)ccn1 (racemic) : 2.9
8. c1cc(-c2cncc([C@H]3C[C@H]4CC[C@H]3N4)c2)ccn1 (racemic) : 7.1
